- study_conditions: in isopropanol, 313.15 K
reported_property: solubility (mole fraction)
Respond with the number and no other words.

Note solubility (mole fraction) for the compound shown: CN(C/C=C/C#CC(C)(C)C)Cc1cccc2ccccc12.Cl 0.0144

* * *

- study_conditions: in n-pentanol, 298.15 K
reported_property: solubility (mole fraction)
Respond with the number and no other words.

Note solubility (mole fraction) for the compound shown: CN(C/C=C/C#CC(C)(C)C)Cc1cccc2ccccc12.Cl 0.0304

* * *

- study_conditions: in n-pentanol, 283.15 K
reported_property: solubility (mole fraction)
Respond with the number and no other words.

Note solubility (mole fraction) for the compound shown: CN(C/C=C/C#CC(C)(C)C)Cc1cccc2ccccc12.Cl 0.0158

The origin of these recorded values is BigSolDB 2.1.
